- Tested on: RIVA
- ASSAY_PROTOCOL: growth inhibition by drug plus 177Lu-lilotomab satetraxetan (1 - RLU/untreated control) (fraction); higher = stronger inhibition
- MEASUREMENT_CONTEXT: 10 nM; time (day): 3; 177Lu-lilotomab satetraxetan 0.5 ug/ml
Counter-ions that a name gives are not always drawn.
MEASURED_ATTRIBUTE: growth inhibition by drug plus 177Lu-lilotomab satetraxetan

Examples from the recorded data:
{"columns": ["COMPOUND", "SYSTEM", "OBSERVED_MEASUREMENT"],
 "data": [
  ["CNC(=O)c1ccc(C)c(-n2c(C)cc(OCc3ccc(F)cc3F)c(Br)c2=O)c1", "RIVA", 0.41],
  ["O=C(c1cc(Cc2n[nH]c(=O)c3ccccc23)ccc1F)N1CCN(C(=O)C2CC2)CC1 [Olaparib (AZD2281)]", "RIVA", 0.539],
  ["CCOC(=O)[C@@H](C)Oc1cccc2c(=O)n(CC(=O)Nc3ccc4c(c3)OCCO4)ccc12", "RIVA", 0.384],
  ["Cc1ccc(NC(=O)c2ccc(CN3CCN(C)CC3)cc2)cc1Nc1nccc(-c2cccnc2)n1 [Imatinib (Gleevec)]", "RIVA", 0.424],
  ["NC(=O)c1ccc(-c2nc(-c3ccccn3)c(-c3ccc4c(c3)OCO4)[nH]2)cc1", "RIVA", 0.633]
]}

compound Cn1cc(-c2ccc3nnc(C(F)(F)c4ccc5ncccc5c4)n3n2)cn1 , growth inhibition by drug plus 177Lu-lilotomab satetraxetan observed: 0.285

compound CC[C@@]1(O)C(=O)OCc2c1cc1n(c2=O)Cc2cc3c(CN(C)C)c(O)ccc3nc2-1 [Topotecan HCl] , growth inhibition by drug plus 177Lu-lilotomab satetraxetan observed: 0.802
